# ASSAY_TARGET: OsSMF1 (Oryza sativa, UniProt Q6ZLB0 1-436)
# Sequence: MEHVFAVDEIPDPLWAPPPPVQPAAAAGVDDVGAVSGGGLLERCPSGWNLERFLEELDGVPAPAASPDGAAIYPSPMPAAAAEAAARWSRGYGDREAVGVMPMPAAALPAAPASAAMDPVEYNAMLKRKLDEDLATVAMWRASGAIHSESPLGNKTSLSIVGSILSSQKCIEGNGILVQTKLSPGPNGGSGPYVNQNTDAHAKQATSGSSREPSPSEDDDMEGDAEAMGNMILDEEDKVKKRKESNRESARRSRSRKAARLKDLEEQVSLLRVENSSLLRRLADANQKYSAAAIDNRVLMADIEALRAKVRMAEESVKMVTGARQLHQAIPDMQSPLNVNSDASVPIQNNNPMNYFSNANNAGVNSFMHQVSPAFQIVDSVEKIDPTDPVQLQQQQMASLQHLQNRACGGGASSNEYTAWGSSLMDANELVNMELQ
# ASSAY_SUMMARY: protein-binding microarray (RPBM); PBS, 2% BSA, 51.3 ng/ul salmon testes DNA, 50 uM zinc acetate, 200 nM TF, 25 C, 1 h; high values mean tight binding
# CONDITION_NOTES: protein: recombinant; tags: N-terminal polyhistidine and DsRed monomer fusion (pET32a); chain copies: 2; label: CyDye5-dUTP incorporated in the synthesized complementary strand; 3' TTTTT single-stranded linker to array surface; dsDNA, one strand shown
The full ranking holds about 39,000 sequences; the median of “fluorescence intensity (a.u.)” is about 4,300, and the highest 2% start at about 39,000. For the sample, the highest values were picked, then their nearest neighbours and some sequences at random.

[
  {
    "ITEM_SEQUENCE": "AGCAAAATCTACGCGATGACGCCACGTGACATGACATCGCCGGAGTCACCTAGTGCAG",
    "binding signal": "5840 fluorescence intensity (a.u.)"
  },
  {
    "ITEM_SEQUENCE": "TCCAGATCAAATCCGACGGCCCAGGATACGCCACGTCACCCGGAGTCACCTAGTGCAG",
    "binding signal": "46700 fluorescence intensity (a.u.)"
  },
  {
    "ITEM_SEQUENCE": "AAACTTCTCTTCAGATAAAGATTTACTACCGTGTCAAATTCGGAGTCACCTAGTGCAG",
    "binding signal": "3800 fluorescence intensity (a.u.)"
  },
  {
    "ITEM_SEQUENCE": "ACAATTTTAATGAAATCGTACATTATACTATATATGTTTTCGGAGTCACCTAGTGCAG",
    "binding signal": "3150 fluorescence intensity (a.u.)"
  },
  {
    "ITEM_SEQUENCE": "TTAATAGTATAGTAAGCAATTGTTGTATGAATTGGCTATTCGGAGTCACCTAGTGCAG",
    "binding signal": "27200 fluorescence intensity (a.u.)"
  },
  {
    "ITEM_SEQUENCE": "CTCTCCTACAATAGGATGGACTATGTGACGTAGCACAATGCGGAGTCACCTAGTGCAG",
    "binding signal": "7860 fluorescence intensity (a.u.)"
  },
  {
    "ITEM_SEQUENCE": "AATCATCCGCCCCAGGCCCCAGCCACGTCGTCCAGATCGCCGGAGTCACCTAGTGCAG",
    "binding signal": "6410 fluorescence intensity (a.u.)"
  },
  {
    "ITEM_SEQUENCE": "AACATGAAAGCTCAAGAGCTCGTGCTGACGGCTGAGAATCCGGAGTCACCTAGTGCAG",
    "binding signal": "3150 fluorescence intensity (a.u.)"
  },
  {
    "ITEM_SEQUENCE": "CCTTCCACATATGCTCATTCGAAAGTAACAAATTCACTCGCGGAGTCACCTAGTGCAG",
    "binding signal": "3190 fluorescence intensity (a.u.)"
  },
  {
    "ITEM_SEQUENCE": "CGATCTATCTTAGTTCATTCGCTGCAAATCCGACGCCTGACGGAGTCACCTAGTGCAG",
    "binding signal": "3240 fluorescence intensity (a.u.)"
  },
  {
    "ITEM_SEQUENCE": "ACCCACACACCCACACCCACACGTCAAAGACCCACGGTTTCGGAGTCACCTAGTGCAG",
    "binding signal": "3160 fluorescence intensity (a.u.)"
  },
  {
    "ITEM_SEQUENCE": "CAAGAATGTACTGAGTACGTCTCAATCCACGTGTTTGAGCCGGAGTCACCTAGTGCAG",
    "binding signal": "4960 fluorescence intensity (a.u.)"
  },
  {
    "ITEM_SEQUENCE": "CAAATATATTATCAAAATATATTCAATGCTAAATTTAATGCGGAGTCACCTAGTGCAG",
    "binding signal": "5300 fluorescence intensity (a.u.)"
  },
  {
    "ITEM_SEQUENCE": "CGGAAAAGAAAGCCATGGAAGAAATGACGCAAGCAGCGGACGGAGTCACCTAGTGCAG",
    "binding signal": "4230 fluorescence intensity (a.u.)"
  },
  {
    "ITEM_SEQUENCE": "TAATGAATTAGGGCATTGGATGTACCAACTTATGTTATATCGGAGTCACCTAGTGCAG",
    "binding signal": "23300 fluorescence intensity (a.u.)"
  },
  {
    "ITEM_SEQUENCE": "TTAGCAAGTGCCTATGTGAGGATATAGCAATATTTCAATGCGGAGTCACCTAGTGCAG",
    "binding signal": "42200 fluorescence intensity (a.u.)"
  },
  {
    "ITEM_SEQUENCE": "AGTAGTAGGGCGCGACACGCGTGTACGTTGCGATAGATGTCGGAGTCACCTAGTGCAG",
    "binding signal": "3330 fluorescence intensity (a.u.)"
  },
  {
    "ITEM_SEQUENCE": "TATATTCAATGCTATGTTTAATGAAACTAATTTGGATATTCGGAGTCACCTAGTGCAG",
    "binding signal": "65100 fluorescence intensity (a.u.)"
  },
  {
    "ITEM_SEQUENCE": "ACAAAATTTATTTCCAGGTGGCGTCTCCTCATTGGCCAGCCGGAGTCACCTAGTGCAG",
    "binding signal": "4370 fluorescence intensity (a.u.)"
  }
]
